Test system: LNCaP tumor-bearing male CB-17 SCID mice
Assay: Biodistribution studies 24 h p.i.
Conditions: mean
endpoint: uptake in spleen (% iD/g)
Answer in % iD/g, number only, no unit symbol.

compound	unit_annotation	readout_number
CC(C)(C)[Si](F)(c1ccc(C(=O)NCC(NC(=O)CCC(C(=O)O)N2CCN(CC(=O)O)CCN(CC(=O)O)CCN(CC(=O)O)CC2)C(=O)NC(CN)C(=O)NCCC(=O)NCCC(=O)NCCCC(NC(=O)CCC(NC(=O)NC(CCC(=O)O)C(=O)O)C(=O)O)C(=O)O)cc1)C(C)(C)C (stereo not shown) [Compound 2C011]	% iD/g	0.3218
CC(C)(C)[Si](F)(c1ccc(C(=O)NC[C@@H](NC(=O)CN2CCN(CC(=O)O)CCN(CC(=O)O)CCN(CC(=O)O)CC2)C(=O)N[C@H](CO)C(=O)NCCC(=O)NCCC(=O)NCCC[C@@H](NC(=O)CC[C@H](NC(=O)N[C@@H](CCC(=O)O)C(=O)O)C(=O)O)C(=O)O)cc1)C(C)(C)C [Compound 2C013]	% iD/g	0.3891
CC(C)(C)[Si](F)(c1ccc(C(=O)NC[C@@H](NC(=O)[C@@H](CCCNC(N)=O)NC(=O)CC[C@@H](C(=O)O)N2CCN(CC(=O)O)CCN(CC(=O)O)CCN(CC(=O)O)CC2)C(=O)NCCCCCC(=O)NCCC[C@@H](NC(=O)CC[C@H](NC(=O)N[C@@H](CCC(=O)O)C(=O)O)C(=O)O)C(=O)O)cc1)C(C)(C)C [Compound 2C014]	% iD/g	0.4296

// next item, uptake in spleen requested
Requested read-out: uptake in spleen. Entry: CC(C)(C)[Si](F)(c1ccc(C(=O)NC[C@@H](NC(=O)[C@@H](CCCNC(N)=O)NC(=O)CC[C@H](C(=O)O)N2CCN(CC(=O)O)CCN(CC(=O)O)CCN(CC(=O)O)CC2)C(=O)NCCCCCC(=O)NCCC[C@@H](NC(=O)CC[C@H](NC(=O)N[C@@H](CCC(=O)O)C(=O)O)C(=O)O)C(=O)O)cc1)C(C)(C)C [Compound 2C015]
0.2671

----------
molecules and their reported uptake in kidney
Test system: LNCaP tumor-bearing male CB-17 SCID mice
Assay: Biodistribution studies 24 h p.i.
Details: mean
Answer in % iD/g, number only, no unit symbol.

molecule	uptake in kidney, % iD/g
CC(C)(C)[Si](F)(c1ccc(C(=O)NCC(NC(=O)CCC(C(=O)O)N2CCN(CC(=O)O)CCN(CC(=O)O)CCN(CC(=O)O)CC2)C(=O)NC(CN)C(=O)NCCC(=O)NCCC(=O)NCCCC(NC(=O)CCC(NC(=O)NC(CCC(=O)O)C(=O)O)C(=O)O)C(=O)O)cc1)C(C)(C)C (stereo not shown) [Compound 2C011]	2.0983

Requested read-out: uptake in kidney. Entry: CC(C)(C)[Si](F)(c1ccc(C(=O)NC[C@@H](NC(=O)CN2CCN(CC(=O)O)CCN(CC(=O)O)CCN(CC(=O)O)CC2)C(=O)N[C@H](CO)C(=O)NCCC(=O)NCCC(=O)NCCC[C@@H](NC(=O)CC[C@H](NC(=O)N[C@@H](CCC(=O)O)C(=O)O)C(=O)O)C(=O)O)cc1)C(C)(C)C [Compound 2C013]
0.9488

Requested read-out: uptake in kidney. Entry: CC(C)(C)[Si](F)(c1ccc(C(=O)NC[C@@H](NC(=O)[C@@H](CCCNC(N)=O)NC(=O)CC[C@@H](C(=O)O)N2CCN(CC(=O)O)CCN(CC(=O)O)CCN(CC(=O)O)CC2)C(=O)NCCCCCC(=O)NCCC[C@@H](NC(=O)CC[C@H](NC(=O)N[C@@H](CCC(=O)O)C(=O)O)C(=O)O)C(=O)O)cc1)C(C)(C)C [Compound 2C014]
2.7708

Requested read-out: uptake in kidney. Entry: CC(C)(C)[Si](F)(c1ccc(C(=O)NC[C@@H](NC(=O)[C@@H](CCCNC(N)=O)NC(=O)CC[C@H](C(=O)O)N2CCN(CC(=O)O)CCN(CC(=O)O)CCN(CC(=O)O)CC2)C(=O)NCCCCCC(=O)NCCC[C@@H](NC(=O)CC[C@H](NC(=O)N[C@@H](CCC(=O)O)C(=O)O)C(=O)O)C(=O)O)cc1)C(C)(C)C [Compound 2C015]
2.2339

----------
System: LNCaP cells
Experiment: Internalization studies in LNCaP cells
Format: cell-based
Conditions: 37° C., 60 min, normalized to reference
Procedure: PSMA-positive LNCAP cells (300265; Cell Lines Service, Eppelheim, Germany) were cultivated in Dulbecco modified Eagle medium/Nutrition Mixture F-12 with Glutamax (1:1) (DMEM-F12, Biochrom, Berlin, Germany) supplemented with fetal bovine serum (10%, FBS Zellkultur, Berlin, Germany) and kept at 37° C. in a humidified CO2 atmosphere (5%). […] Cells were counted with a Neubauer hemocytometer (Paul Marienfeld, Lauda-Königshofen, Germany). […]
endpoint: Internalization (% IBA)
Answer in % IBA, number only, no unit symbol.

molecule	unit_annotation	Internalization
CC(C)(C)[Si](F)(c1ccc(C(=O)NC[C@@H](NC(=O)[C@@H](CCCNC(N)=O)NC(=O)CC[C@@H](C(=O)O)N2CCN(CC(=O)O)CCN(CC(=O)O)CCN(CC(=O)O)CC2)C(=O)NCCCCCC(=O)NCCC[C@@H](NC(=O)CC[C@H](NC(=O)N[C@@H](CCC(=O)O)C(=O)O)C(=O)O)C(=O)O)cc1)C(C)(C)C	% IBA	235
CC(C)(C)[Si](F)(c1ccc(C(=O)NC[C@@H](NC(=O)CN2CCN(CC(=O)O)CCN(CC(=O)O)CCN(CC(=O)O)CC2)C(=O)N[C@H](CO)C(=O)NCCC(=O)NCCC(=O)NCCC[C@@H](NC(=O)CC[C@H](NC(=O)N[C@@H](CCC(=O)O)C(=O)O)C(=O)O)C(=O)O)cc1)C(C)(C)C	% IBA	141
CC(C)(C)[Si](F)(c1ccc(C(=O)NC[C@@H](NC(=O)[C@@H](CCCNC(N)=O)NC(=O)CC[C@H](C(=O)O)N2CCN(CC(=O)O)CCN(CC(=O)O)CCN(CC(=O)O)CC2)C(=O)NCCCCCC(=O)NCCC[C@@H](NC(=O)CC[C@H](NC(=O)N[C@@H](CCC(=O)O)C(=O)O)C(=O)O)C(=O)O)cc1)C(C)(C)C	% IBA	226

Requested read-out: Internalization. Entry: CC(C)(C)[Si](F)(c1ccc(C(=O)NCC(NC(=O)CCC(C(=O)O)N2CCN(CC(=O)O)CCN(CC(=O)O)CCN(CC(=O)O)CC2)C(=O)NC(CN)C(=O)NCCC(=O)NCCC(=O)NCCCC(NC(=O)CCC(NC(=O)NC(CCC(=O)O)C(=O)O)C(=O)O)C(=O)O)cc1)C(C)(C)C (stereo not shown)
163.2

----------
Tested on: LNCaP tumor-bearing male CB-17 SCID mice
Assay: Biodistribution studies 24 h p.i.
Conditions: mean
compounds and their reported uptake in lung
Answer in % iD/g, number only, no unit symbol.

Requested read-out: uptake in lung. Entry: CC(C)(C)[Si](F)(c1ccc(C(=O)NCC(NC(=O)CCC(C(=O)O)N2CCN(CC(=O)O)CCN(CC(=O)O)CCN(CC(=O)O)CC2)C(=O)NC(CN)C(=O)NCCC(=O)NCCC(=O)NCCCC(NC(=O)CCC(NC(=O)NC(CCC(=O)O)C(=O)O)C(=O)O)C(=O)O)cc1)C(C)(C)C (stereo not shown)
0.0469

Requested read-out: uptake in lung. Entry: "CC(C)(C)[Si](F)(c1ccc(C(=O)NC[C@@H](NC(=O)[C@@H](CCCNC(N)=O)NC(=O)CC[C@H](C(=O)O)N2CCN(CC(=O)O)CCN(CC(=O)O)CCN(CC(=O)O)CC2)C(=O)NCCCCCC(=O)NCCC[C@@H](NC(=O)CC[C@H](NC(=O)N[C@@H](CCC(=O)O)C(=O)O)C(=O)O)C(=O)O)cc1)C(C)(C)C"
0.0468

Requested read-out: uptake in lung. Entry: "CC(C)(C)[Si](F)(c1ccc(C(=O)NC[C@@H](NC(=O)CN2CCN(CC(=O)O)CCN(CC(=O)O)CCN(CC(=O)O)CC2)C(=O)N[C@H](CO)C(=O)NCCC(=O)NCCC(=O)NCCC[C@@H](NC(=O)CC[C@H](NC(=O)N[C@@H](CCC(=O)O)C(=O)O)C(=O)O)C(=O)O)cc1)C(C)(C)C"
0.0438

Requested read-out: uptake in lung. Entry: "CC(C)(C)[Si](F)(c1ccc(C(=O)NC[C@@H](NC(=O)[C@@H](CCCNC(N)=O)NC(=O)CC[C@@H](C(=O)O)N2CCN(CC(=O)O)CCN(CC(=O)O)CCN(CC(=O)O)CC2)C(=O)NCCCCCC(=O)NCCC[C@@H](NC(=O)CC[C@H](NC(=O)N[C@@H](CCC(=O)O)C(=O)O)C(=O)O)C(=O)O)cc1)C(C)(C)C"
0.0654

Every entry's value here was drawn from patent US20240165281A1.
